Molecular target: T1, APC8401-AA
T1 chain: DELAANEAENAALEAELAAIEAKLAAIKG
Assay: two-hybrid library CCmax;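 further: natural log of median RNA to DNA barcode read ratio; higher means stronger binding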
Details: mean of both orientations
Give measured interaction score for each item. Keep answers brief.
Just the number, please.

get_value(item= DKNAALKAKNAALKAKAAALKAKLAAIKG [APC5531-AA] , readout=interaction score) returns -1.77

The recorded interaction score for entry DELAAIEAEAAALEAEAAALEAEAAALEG [APC222-AA] equals -1.94

For reference, reported interaction score for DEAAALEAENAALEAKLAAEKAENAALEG [APC2474-AA] stands at -1.53
